Below is a list of entries, each paired with its recorded IC50 value.
Tested on: HepG2
Experiment: Cytotoxicity against human HepG2 cells assessed as growth inhibition after 48 hrs by MTT assay
Format: functional, cell-based
Details: HepG2, 48 h
Numeric only. Scale: µM

- Molecule: "C=C1CC[C@@]2(OC1)O[C@H]1C[C@H]3[C@@H]4CC[C@H]5C[C@@H](O[C@@H]6O[C@H](CO)[C@H](O)[C@H](O)[C@H]6O[C@@H]6O[C@H](CO)[C@@H](O)[C@H](O)[C@H]6O)CC[C@]5(C)[C@H]4CC[C@]3(C)[C@H]1[C@@H]2C"
  Target Or Test System: "HepG2"
  IC50, µM: 6.47

// next item, IC50 requested
Reported HepG2 IC50 for item C[C@H]1CC[C@@]2(OC1)O[C@H]1C[C@H]3[C@@H]4CC[C@H]5C[C@@H](OC6O[C@H](CO)[C@@H](O)[C@H](O)[C@@H]6O[C@@H]6O[C@H](CO)[C@@H](O)[C@H](O)[C@H]6O)CC[C@]5(C)[C@H]4CC[C@]3(C)[C@H]1[C@@H]2C (some centres not stated) was 6.42
